System: CSNK1G2;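 also: KINOMEscan kinase panel screen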
Settings: concentration: 1 μM, replicates: in singlicate; n = 1
%Inh: recorded values
Use % as the unit, but write only the number.

*Q* %Inh lookup needed for CN(C)S(=O)(=O)c1cc(-c2ccc3nccc(-c4cccc(S(N)(=O)=O)c4)c3c2)cnc1N [GSK1669921] , thanks.
*A* 0

*Q* %Inh lookup needed for COC(=O)Nc1nc2cc(Oc3ccc(NC(=O)Nc4cc(C(F)(F)F)ccc4F)cn3)ccc2[nH]1.Cl.Cl [GW681170] , thanks.
*A* 6

*Q* %Inh lookup needed for CCn1c(-c2nonc2N)nc2c(C#CC(C)(C)O)ncc(OCCCCN)c21.O=C(O)C(F)(F)F.O=C(O)C(F)(F)F [GSK507274] , thanks.
*A* 0

---
*Q* %Inh lookup needed for COc1cc(Nc2nccc(-c3c(-c4cccc(NC(=O)c5c(F)cccc5F)c4)nn4ccccc34)n2)cc(OC)c1OC [GSK323521] , thanks.
*A* 31

*Q* %Inh lookup needed for Nc1ncc(-c2cccnc2)c2scc(-c3ccc4c(c3)CCN4C(=O)Cc3ccccc3)c12 [GSK683281] , thanks.
*A* 9

*Q* %Inh lookup needed for Cc1ccc(C(=O)Nc2ccc(Nc3ccnc4cc(-c5nccs5)ccc34)cc2O)cc1.Cl [GW494702] , thanks.
*A* 0

*Q* %Inh lookup needed for CCCCc1nn2ncccc2c1-c1ccnc(Nc2ccc(N3CCN(C)CC3)cc2)n1 [GW684941] , thanks.
*A* 0

*Q* %Inh lookup needed for Cl.Cl.NCC(NC(=O)c1cc(-c2ccccc2)c(-c2ccnc3[nH]ccc23)s1)c1ccccc1 (centres unmarked) [GSK1321561] , thanks.
*A* 89

*Q* %Inh lookup needed for Nc1n[nH]c2cnc(-c3ccccc3)cc12 [SB-642124] , thanks.
*A* 0

*Q* %Inh lookup needed for CN1CCN(Cc2cccc(-c3ccc4c(Nc5ccc(Oc6ccccc6)cc5)ccnc4c3)c2)CC1 [GW578342] , thanks.
*A* 1

*Q* %Inh lookup needed for COc1ccc(Nc2nccc(N3CCC(NC(=O)Nc4cccc(OC)c4)C3)n2)cc1 (centres unmarked) [GSK1379742] , thanks.
*A* 0
